- Tested on: CCRIS mutagenicity, Ames/micronucleus/aberration tests
- procedure text: CCRIS mutagenicity studies
- experimental parameters: Test System: AMES SALMONELLA TYPHIMURIUM; Strain/Indicator: TA100; Metabolic Activation: RAT, LIVER, S-9, PHENOBARBITAL AND 5,6-BENZOFLAVONE; Method: PREINCUBATION
Activity calls are given as the source filed them. How the calls were made is not given here.
The reply should name one outcome from active, inactive

Observe how each entry below is paired with its result.
{"compound": "CC(=O)c1cccc(N=Nc2ccc(N)c(C(C)=O)c2C)c1C", "group label": "inactive"}
{"compound": "Nc1cccc(N)c1C(=O)O", "group label": "inactive"}
{"compound": "Nc1ccc(CO)c([N+](=O)[O-])c1", "group label": "active"}

# outcome recorded in this test, key = COC(=O)C1=C(C)NC(C)=C(C(=O)OC/C=C/c2ccccc2)C1c1cccc([N+](=O)[O-])c1 (configuration not stated)
inactive

Do the same for `C[C@H]1COc2c(C3(N)CC3)c(F)cc3c(=O)c(C(=O)O)cn1c23` please
inactive

Next up: `COc1cc(OC)c2c(=O)c3c(O)ccc(OC)c3oc2c1`
inactive

Lookup `O=Cc1c([N+](=O)[O-])cccc1[N+](=O)[O-]`
active

Ok, now `N.N.O=C([O-])C1(C(=O)[O-])CCC1.[Pt+4]`
inactive

Then `O=C1C(Cl)=C(Cl)C(=O)C(Cl)=C1Cl` ?
active

Next record, please: `OC1c2ccccc2Oc2ccccc21`
inactive

Now this one: `Fc1cnc2ccccc2c1`
inactive

Next entry: Cc1oc(=O)oc1CN1CCN(c2cc3c(cc2F)c(=O)c(C(=O)O)c2n3C(C)S2)CC1 (configuration not stated)
inactive

----------
- System: CCRIS mutagenicity, Ames/micronucleus/aberration tests
- procedure text: CCRIS mutagenicity studies
- experimental parameters: Test System: AMES SALMONELLA TYPHIMURIUM; Strain/Indicator: TA102; Metabolic Activation: RAT, LIVER, S-9, AROCLOR 1254; Method: STANDARD PLATE
Calls of active or inactive are those of the source. How the calls were made is not given here.
Would you mind answering with one of these outcomes? true (active), false (inactive)

{"molecule": "O=C(c1ccccc1)C(O)c1ccccc1 (centres undefined)", "group label": "false"}

Consider now this further molecule.
Name the outcome recorded for `N.N.O=C([O-])C1(C(=O)[O-])CCC1.[Pt+4]` in the assay.
true

----------
- Tested on: CCRIS mutagenicity, Ames/micronucleus/aberration tests
- procedure text: CCRIS mutagenicity studies
- experimental parameters: Test System: AMES SALMONELLA TYPHIMURIUM; Strain/Indicator: TA100; Metabolic Activation: HAMSTER, LIVER, S-9, AROCLOR 1254 (10 OR 30%); Method: PREINCUBATION
Activity calls are given as the source filed them. The rule behind the calls is not given here.
Reply using exactly one outcome from active, inactive

Check out these entries, answers already filled in.
{"compound": "CCCCCCCCCC", "group label": "inactive"}
{"compound": "Cc1cccc(N)c1", "group label": "inactive"}
{"compound": "O=C(O)c1ccccc1", "group label": "inactive"}
{"compound": "O=C(OCC(COC(=O)c1ccccc1)(COC(=O)c1ccccc1)COC(=O)c1ccccc1)c1ccccc1", "group label": "inactive"}
{"compound": "Clc1c(Cl)c(Cl)c2c(c1Cl)Oc1c(Cl)c(Cl)c(Cl)c(Cl)c1O2", "group label": "inactive"}

Please let me know the test result on file for CCCCCCC(C)OC(=O)C[S][Sn]([CH2]CCC)([S]CC(=O)OC(C)CCCCCC)[S]CC(=O)OC(C)CCCCCC (stereo not drawn) .
inactive

Try the compound `O=[N+]([O-])C(Br)(Br)Br`
inactive

Query `C=C1C/C(=C/C)C(=O)O[C@@H]2CCN3CC=C(COC(=O)[C@]1(C)O)[C@H]23` next
active

What do you get for `CC(C)C(C)(C)C(C)(C)C(C)(C)S` ?
inactive

Please do the same for `C=C(C)CCl` as well.
inactive

Repeat with `CCCCCCCC/C=C\CCCCCCCC(=O)O`
inactive

Query `CCCCCCCCCCCCCCCCCCN` next
inactive

Please do the same for `CC(C)O` as well.
inactive
